# maps each entry to its 450 nm Absorbance
- system: T1, hCTLA4-His-BAP (human)
- T1 sequence (chain, biotin on the BAP-tag): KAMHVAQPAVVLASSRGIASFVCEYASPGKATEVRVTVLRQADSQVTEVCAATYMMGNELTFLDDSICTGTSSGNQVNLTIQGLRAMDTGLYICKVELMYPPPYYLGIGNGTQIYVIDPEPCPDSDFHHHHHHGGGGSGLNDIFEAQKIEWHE
- protocol.details: IgG ELISA, 2.5 ug/mL IgG, no AMP
Provide a numeric answer; units are not to be included.

- ABAM001 (antibody, human IgG1, V domains shown) VH: EVQLVESGGDLVKPGGGLRLSCAASGFTFSSYTMHWVRQAPGKGLEWVSSISSRSRYKYYADSVKGRFTISRDNAKNSLYLQMNSLRAEDTAVYYCARFGIKNKRNWVLDYWGQGTLVTVSS VL: QSALTQPPSASGSPGQTVTISCTGTSTDVGAYNYVSWYQQHPGKAPKLMIYQVSKRPSGVPDRFSGSKSGNTASLTVSGLQAEDEADYFCSLYTTRPQLAFGGGTKLTVL: 3.46
- ABAM003 (antibody, human IgG1, V domains shown) VH: EVQLVESGGDLVKPGGGLRLSCAASGFTFSGYTMHWVRQAPGKGLEWVSSISSRSRYASYADSVKGRFTISRDNAKNSLYLQMNSLRAEDTAVYYCARFGIKNHLNWVFDYWGQGTLVTVSS VL: QSALTQPPSASGSPGQTVTISCTGTSSDVGDYNYVSWYQQHPGKAPKLMIYGVSKRPSGVPDRFSGSKSGNTASLTVSGLQAEDEADYFCSTVSTSHSPVFGGGTKLTVL: 3.18
- ABAM005 (antibody, human IgG1, V domains shown) VH: EVQLVESGGDLVKPGGGLRLSCAASGFTFSGYTMNWVRQAPGKGLEWVSSISSRSNYISYADSVKGRFTISRDNAKNSLYLQMNSLRAEDTAVYYCARYGALNHMLWVFDYWGQGTLVTVSS VL: QSALTQPPSASGSPGQTVTISCTGTSTDVGAYNYVSWYQQHPGKAPKLMIYSTSKRPSGVPDRFSGSKSGNTASLTVSGLQAEDEADYFCSLYRYAQGVVFGGGTKLTVL: 0.069

Answer with the recorded 450 nm Absorbance for the binder listed here: ABAM006 (antibody, human IgG1, V domains shown) VH: EVQLVESGGDLVKPGGGLRLSCAASGFTFSTYTMHWVRQAPGKGLEWVSSISSRSGHAHYADSVKGRFTISRDNAKNSLYLQMNSLRAEDTAVYYCARFGRKKKRLWVFDYWGQGTLVTVSS VL: QSALTQPPSASGSPGQTVTISCTGTSTDVGFYNYVSWYQQHPGKAPKLMIYQNSKRPSGVPDRFSGSKSGNTASLTVSGLQAEDEADYFCSTNRAARSVAFGGGTKLTVL
0.776

Answer with the recorded 450 nm Absorbance for the binder listed here: ABAM002 (antibody, human IgG1, V domains shown) VH: EVQLVESGGDLVKPGGGLRLSCAASGFTFSSYTMNWVRQAPGKGLEWVSSISSRSTYAHYADSVKGRFTISRDNAKNSLYLQMNSLRAEDTAVYYCARFGGRGHLLWVFDYWGQGTLVTVSS VL: QSALTQPPSASGSPGQTVTISCTGTSTDVGTYNYVSWYQQHPGKAPKLMIYQGSKRPSGVPDRFSGSKSGNTASLTVSGLQAEDEADYFCSTVSGDFHVAFGGGTKLTVL
0.139

These entries and their values trace back to patent EP4361176A1.
